System: KRAS G12C mutant NCI-H358 cells
Assay: Cell proliferation inhibition experiment, 3D spheroid, CellTiter-Glo, NCI-H358
Assay type: cell-based, human
Details: Homo sapiens, NCI-H358, 120 h, NCI-H358 (KRAS G12C mutant) 3D spheroid, 5 days with compound, CellTiter-Glo; read-out: H358 IC50
Experimental: […] NCI-H358 is a KRAS G12C mutant human non-small cell lung cancer cell line, cultured in 10% FBS RPMI-1640+1% PS culture medium; and A549 is a KRAS G12S mutant human lung adenocarcinoma cell line, cultured in 10% FBS F-12K+1% PS culture medium. Cells at logarithmic growth stage were taken, digested with trypsin-EDTA, then collected and counted. […] The cell proliferation inhibition rate IR (%)=(RLU control -RLU compound)/(RLU control -RLU blank) x100% was calculated. […]
So basically: is IC50 under 5 nM? Then Satisfied. Not under? Then Not satisfied.

C=CC(=O)N1CCN2C(=O)c3c(N4CC(C)(O)CC4(C)C)nc(-c4c(O)cccc4F)c(Cl)c3OC[C@H]2C1 (stereo partly shown) | Satisfied
C=CC(=O)N1CCN2C(=O)c3c(N4C[C@@H](N5CCC5)CC4(C)C)nc(-c4ccccc4F)c(Cl)c3OC[C@H]2C1 (single isomer, unassigned) | Not satisfied
C=CC(=O)N1CCN2C(=O)c3c(N4CCOCC4)nc(-c4c(O)cccc4F)c(Cl)c3OC[C@H]2C1 | Not satisfied
C=CC(=O)N1CCN2C(=O)c3c(N4C[C@@H](C)N(C)[C@@H](C)C4)nc(-c4c(O)cccc4F)c(Cl)c3OC[C@H]2C1 | Not satisfied
C=CC(=O)N1CCN2C(=O)c3c(N4C[C@@H](C)O[C@@H](C)C4)nc(-c4c(O)cccc4F)c(Cl)c3OC[C@H]2C1 | Not satisfied
C=CC(=O)N1CCN2C(=O)c3c(N4CCN(C)C[C@@H]4C)nc(-c4c(O)cccc4F)c(Cl)c3OC[C@H]2C1 | Satisfied

Recorded values, source patent US20230203060A1.
